B1: NP_009172.2 (parent)
chain: LPALFTDLYSQEITAEEAREALP

Variants of: B1
test-protocol: protein stability index of a GFP-peptide fusion (GPS, HEK-293T) (PSI 1-6); higher = more stable;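 also: lentivirally expressed fusion library, cells FACS-sorted into six equal-sized GFP/DsRed ratio bins, PSI computed from sequencing read fractions per bin weighted by bin number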
condition-set: c terminus: native
Classify by measured protein stability index: satisfied if it is equal to or exceeds 3, not satisfied if it is smaller.

Determine whether measured protein stability index meets or exceeds 3 for LPALFTDLYSQEITAEHAREALP [E17H]
not satisfied

Determine whether measured protein stability index meets or exceeds 3 for LPALFTDLYSQEITAEEAREATP [L22T]
satisfied

Determine whether measured protein stability index meets or exceeds 3 for LPALFTDLYSQESTAEEAREALP [I13S]
satisfied

Determine whether measured protein stability index meets or exceeds 3 for LPALFVDLYSQEITAEEAREALP [T6V]
not satisfied

Determine whether measured protein stability index meets or exceeds 3 for LPATFTDLYSQEITAEEAREALP [L4T]
not satisfied

Determine whether measured protein stability index meets or exceeds 3 for LPALFTDLYSQEITSEEAREALP [A15S]
not satisfied

Determine whether measured protein stability index meets or exceeds 3 for LPALFTDLYSQECTAEEAREALP [I13C]
not satisfied

Determine whether measured protein stability index meets or exceeds 3 for LPALFQDLYSQEITAEEAREALP [T6Q]
not satisfied

Determine whether measured protein stability index meets or exceeds 3 for LPALATDLYSQEITAEEAREALP [F5A]
satisfied

Determine whether measured protein stability index meets or exceeds 3 for LPALFTMLYSQEITAEEAREALP [D7M]
not satisfied

Determine whether measured protein stability index meets or exceeds 3 for LPALFTDLKSQEITAEEAREALP [Y9K]
satisfied

Determine whether measured protein stability index meets or exceeds 3 for PPALFTDLYSQEITAEEAREALP [L1P]
not satisfied

Determine whether measured protein stability index meets or exceeds 3 for LPALITDLYSQEITAEEAREALP [F5I]
satisfied

Determine whether measured protein stability index meets or exceeds 3 for LPALFTDLYSQEITALEAREALP [E16L]
not satisfied

Determine whether measured protein stability index meets or exceeds 3 for LPALFTELYSQEITAEEAREALP [D7E]
not satisfied

Determine whether measured protein stability index meets or exceeds 3 for LPALFTDLYSQEITAEEARETLP [A21T]
not satisfied

Determine whether measured protein stability index meets or exceeds 3 for LDALFTDLYSQEITAEEAREALP [P2D]
satisfied

Determine whether measured protein stability index meets or exceeds 3 for LPALFTDLYSQEITAEEARENLP [A21N]
not satisfied

Determine whether measured protein stability index meets or exceeds 3 for LPALFTILYSQEITAEEAREALP [D7I]
not satisfied
